- studyTarget: von Hippel-Lindau disease tumor suppressor/SWI/SNF-related matrix-associated actin-dependent regulator of chromatin subfamily A member 2 (Homo sapiens, UniProt P51531+P40337)
- Sequence (P40337 whole entry, looked up): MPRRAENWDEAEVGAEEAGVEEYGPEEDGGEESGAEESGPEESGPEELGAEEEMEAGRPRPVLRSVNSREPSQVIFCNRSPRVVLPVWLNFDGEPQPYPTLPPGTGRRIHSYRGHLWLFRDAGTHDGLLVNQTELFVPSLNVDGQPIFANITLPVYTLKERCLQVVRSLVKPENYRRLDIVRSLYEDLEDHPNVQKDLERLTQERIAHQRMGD
- Sequence (P51531 whole entry, looked up): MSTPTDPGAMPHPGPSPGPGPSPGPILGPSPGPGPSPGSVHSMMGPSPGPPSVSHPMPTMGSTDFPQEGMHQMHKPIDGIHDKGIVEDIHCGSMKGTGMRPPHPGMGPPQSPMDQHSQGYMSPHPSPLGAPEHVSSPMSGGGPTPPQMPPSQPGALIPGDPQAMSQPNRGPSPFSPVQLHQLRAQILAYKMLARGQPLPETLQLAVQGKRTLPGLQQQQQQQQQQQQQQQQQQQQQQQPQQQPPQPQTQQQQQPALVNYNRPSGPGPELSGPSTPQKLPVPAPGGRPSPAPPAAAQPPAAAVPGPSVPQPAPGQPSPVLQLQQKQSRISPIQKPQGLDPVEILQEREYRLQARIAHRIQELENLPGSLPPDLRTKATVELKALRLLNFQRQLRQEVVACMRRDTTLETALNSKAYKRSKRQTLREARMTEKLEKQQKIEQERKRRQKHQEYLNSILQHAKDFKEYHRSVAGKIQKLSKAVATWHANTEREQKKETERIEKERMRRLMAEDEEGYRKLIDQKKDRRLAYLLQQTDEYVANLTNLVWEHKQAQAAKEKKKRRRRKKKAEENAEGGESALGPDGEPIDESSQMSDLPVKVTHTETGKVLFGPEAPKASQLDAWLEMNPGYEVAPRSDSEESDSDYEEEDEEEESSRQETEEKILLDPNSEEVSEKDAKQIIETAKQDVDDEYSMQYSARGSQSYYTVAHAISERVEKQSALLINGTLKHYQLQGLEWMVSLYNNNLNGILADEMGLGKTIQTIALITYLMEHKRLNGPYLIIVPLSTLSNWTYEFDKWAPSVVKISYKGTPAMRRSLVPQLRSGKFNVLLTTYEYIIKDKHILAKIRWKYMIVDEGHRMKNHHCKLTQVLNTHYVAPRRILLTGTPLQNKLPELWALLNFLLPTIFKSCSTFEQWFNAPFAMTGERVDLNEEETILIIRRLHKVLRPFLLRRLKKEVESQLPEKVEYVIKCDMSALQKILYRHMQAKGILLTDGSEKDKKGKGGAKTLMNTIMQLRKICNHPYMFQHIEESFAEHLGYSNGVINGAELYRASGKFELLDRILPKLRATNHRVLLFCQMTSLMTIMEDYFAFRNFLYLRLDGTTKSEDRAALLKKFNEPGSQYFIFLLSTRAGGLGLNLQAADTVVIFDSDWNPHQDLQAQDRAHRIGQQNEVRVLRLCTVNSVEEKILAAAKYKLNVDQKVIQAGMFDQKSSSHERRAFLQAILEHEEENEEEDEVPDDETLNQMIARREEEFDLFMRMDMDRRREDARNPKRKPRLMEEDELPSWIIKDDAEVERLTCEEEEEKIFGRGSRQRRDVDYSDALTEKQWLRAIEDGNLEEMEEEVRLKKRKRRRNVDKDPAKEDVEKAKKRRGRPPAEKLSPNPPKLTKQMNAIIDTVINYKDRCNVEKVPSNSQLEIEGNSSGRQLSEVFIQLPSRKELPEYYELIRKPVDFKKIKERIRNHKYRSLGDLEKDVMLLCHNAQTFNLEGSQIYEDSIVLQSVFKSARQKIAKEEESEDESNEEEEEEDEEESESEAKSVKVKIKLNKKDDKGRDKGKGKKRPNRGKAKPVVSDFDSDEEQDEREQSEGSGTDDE
- assayText: PROTAC activity at VHL/SMARCA2 in human HT-1080 cells assessed as induction of SMARCA2 degradation by measuring maximum efficacy incubated for 6 hrs by Nano-Glo HiBiT Lytic Detection Assay relative to control
- Assay type: cell-based
// reported Emax per item
property: Emax (%)

Cc1ncsc1-c1ccc([C@H](C)NC(=O)[C@@H]2C[C@@H](O)CN2C(=O)[C@@H](NC(=O)[C@H]2CC[C@H](CN3CCC(c4ccc5c(c4)-n4c(nc(=O)c6c(Cl)cccc64)C5(C)C)CC3)CC2)C(C)(C)C)cc1
92
Cc1ncsc1-c1ccc([C@H](C)NC(=O)[C@@H]2C[C@@H](O)CN2C(=O)[C@@H](c2cc(OC3CCC(N4CCC(c5ccc6c(c5)C(C)(C)c5nc(=O)c7c(Cl)cccc7n5-6)CC4)CC3)no2)C(C)C)cc1 (some centres undefined)
99
Cc1ncsc1-c1ccc([C@H](C)NC(=O)[C@@H]2C[C@@H](O)CN2C(=O)[C@@H](c2cc(OCCCN3CCC(c4ccc5c(c4)C(C)(C)c4nc(=O)c6c(Cl)cccc6n4-5)CC3)no2)C(C)C)cc1
98
Cc1ncsc1-c1ccc([C@H](C)NC(=O)[C@@H]2C[C@@H](O)CN2C(=O)[C@H](C(C)C)n2cc([C@H]3CC[C@H](CN4CCC(c5ccc6c(c5)C(C)(C)c5nc(=O)c7c(Cl)cccc7n5-6)CC4)CC3)nn2)cc1
98
Cc1ncsc1-c1ccc([C@H](C)NC(=O)[C@@H]2C[C@@H](O)CN2C(=O)[C@@H](NC(=O)[C@H]2CC[C@H](CN3CCC(c4ccc5c(c4)-n4c(nc(=O)c6c(Br)cccc64)C5(C)C)CC3)CC2)C(C)(C)C)cc1
93
Cc1ncsc1-c1ccc([C@H](C)NC(=O)[C@@H]2C[C@@H](O)CN2C(=O)[C@@H](c2cc(OCC(C)CN3CCC(c4ccc5c(c4)-n4c(nc(=O)c6c(Cl)cccc64)C5(C)C)CC3)no2)C(C)C)cc1 (some centres undefined)
97
Cc1ncsc1-c1ccc([C@H](C)NC(=O)[C@@H]2C[C@@H](O)CN2C(=O)[C@@H](n2cc([C@H]3CC[C@H](CN4CCC(c5ccc6c(c5)-n5c(nc(=O)c7c(Cl)cccc75)C6(C)C)CC4)CC3)nn2)C(C)(C)C)cc1
97
Cc1ncsc1-c1ccc([C@H](C)NC(=O)[C@@H]2C[C@@H](O)CN2C(=O)[C@@H](c2cc(N3CCC(CN4CCC(c5ccc6c(c5)-n5c(nc(=O)c7c(Cl)cccc75)C6(C)C)CC4)CC3)no2)C(C)C)cc1
97
Cc1ncsc1-c1ccc([C@H](C)NC(=O)[C@@H]2C[C@@H](O)CN2C(=O)[C@@H](n2cc([C@H]3CC[C@H](CN4CCC(c5ccc6c(c5)C(C)(C)c5nc(=O)c7c(Cl)cccc7n5-6)CC4)CC3)nn2)C(C)(C)C)cc1
97

Source of measurements: ChEMBL document CHEMBL6096658
